Overview of reported logD across a group of compounds:
Assay: Lipophilicity, log D of the compound
Type: physicochemical
Conditions: octanol/water
measuredMetric: logD

                               smilesrecord  value
0  NC(=O)Nc1cc(-c2ccccc2)sc1C(=O)N[C@H]1CCCNC1   1.04
1  NC(=O)Nc1cc(-c2cccc(F)c2)sc1C(=O)N[C@H]1CCCNC1    1.2

---

Experiment: AUC in nude mouse
Type: ADME, organism-based
Design: concentration or dose not given beside the values
Conditions: plasma
Would you please tag the item 1 when its AUC is 2 µM·h or above, and 0 when it is below?

                               smilesrecord  categorylabel
0  Cl.NC(=O)Nc1sc(-c2cccc(F)c2F)cc1C(=O)N[C@H]1CCCNC1              0
1  Cl.NC(=O)Nc1sc(-c2ccc(F)cc2)cc1C(=O)N[C@H]1CCCNC1              0
2  Cl.NC(=O)Nc1cc(-c2cccc(F)c2F)sc1C(=O)N[C@H]1CCCNC1              0
3  Cl.NC(=O)Nc1cc(-c2ccc(F)cc2)sc1C(=O)N[C@H]1CCCNC1              0
4  Cl.NC(=O)Nc1sc(-c2cccc(F)c2)cc1C(=O)N[C@H]1CCCNC1              1
5  NC(=O)Nc1cc(-c2cccc(F)c2)sc1C(=O)N[C@H]1CCCNC1              1

---

Measured Vd, listed per entry for reference.
Test: Volume of distribution at steady state in nude mouse
Format: ADME, organism-based
Settings: in vivo, read-out: Vdss
measuredMetric: Vd (L/kg)

                                   molecule  measuredmetric  value
0  Cl.NC(=O)Nc1sc(-c2cccc(F)c2F)cc1C(=O)N[C@H]1CCCNC1              Vd    4.5
1  Cl.NC(=O)Nc1cc(-c2ccc(F)cc2)sc1C(=O)N[C@H]1CCCNC1              Vd    8.5
2  NC(=O)Nc1cc(-c2cccc(F)c2)sc1C(=O)N[C@H]1CCCNC1 [AZD-7762]              Vd    3.9
3  Cl.NC(=O)Nc1cc(-c2cccc(F)c2F)sc1C(=O)N[C@H]1CCCNC1              Vd    7.7
4  Cl.NC(=O)Nc1sc(-c2ccc(F)cc2)cc1C(=O)N[C@H]1CCCNC1              Vd    6.1
5  Cl.NC(=O)Nc1sc(-c2cccc(F)c2)cc1C(=O)N[C@H]1CCCNC1              Vd    2.8

---

Assay: Thermodynamic solubility of the compound in 0.1 M phosphate buffer at pH 7.4
Format: physicochemical
Conditions: read-out: Therm_solubility
measuredMetric: solubility thermodynamic

                               smilesrecord      value
0  NC(=O)Nc1cc(-c2cccc(F)c2)sc1C(=O)N[C@H]1CCCNC1  > 1000 µM

---

Experiment: Clearance in rat
Format: ADME, organism-based
Conditions: in vivo
measuredMetric: clearance (mL/min/kg)

                               smilesrecord  unitstring  value
0  NC(=O)Nc1cc(-c2cccc(F)c2)sc1C(=O)N[C@H]1CCCNC1   mL/min/kg   12.8

Taken from ChEMBL document CHEMBL2069189.
